From: PubChem BioAssay (NCI)

- Tested on: MALME-3M melanoma
- experimentalProtocol: NCI tumour cell line growth inhibition, 48 h; in the data active means GI50 below about 0.43 µM; inactive means the rest
API: response.call in active, inactive

Would you please look over these solved cases?
[
  {
    "molecule": "COc1cc2nnn3c4ncccc4c(N=O)c3c2cc1OC",
    "tgt": "MALME-3M melanoma",
    "categoryLabel": "inactive"
  },
  {
    "molecule": "COc1ccc2cc(-c3c(-c4ccncc4)nc(-c4ccc(S(C)=O)cc4C)n3C)ccc2c1 (configuration not stated)",
    "tgt": "MALME-3M melanoma",
    "categoryLabel": "inactive"
  },
  {
    "molecule": "O=c1oc2ccc(F)cc2c(=O)n1-c1ccc(Br)cc1F",
    "tgt": "MALME-3M melanoma",
    "categoryLabel": "active"
  }
]

Short answer needed: outcome of this test for CN(C)CCCC1(c2ccc(F)cc2)OCc2cc(-c3cncc4ccccc34)ccc21 (configuration not stated) ?
inactive

Short answer needed: outcome of this test for COc1ccc(C2ONC3=NCCN32)cc1 (configuration not stated) ?
inactive

Short answer needed: outcome of this test for COc1ccc(C(=O)C[C@]2(O)C(=O)Nc3c(Cl)ccc(Cl)c32)cc1 ?
inactive

Short answer needed: outcome of this test for Cc1cc(NC(=O)NC(=O)c2ccccc2N(C)C)ccc1Oc1ncc(Br)cn1 ?
inactive

Short answer needed: outcome of this test for O=C(/C=C/c1cn(-c2ccccc2)nc1-c1ccc([N+](=O)[O-])cc1)c1ccc(Cl)cc1 ?
inactive
